Molecular target: BmDHFR (Brugia malayi)
Experiment: biochemical
Type: biochemical
Settings: average of three trials; read-out: IC50 against BmDHFR Average
Here the recorded IC50 is given for each entry.
Record the result as a number with its unit.

| compound | measure name | reported value |
| --- | --- | --- |
| Cc1nc2ccc(CN(C)c3ccc(C(=O)N[C@@H](CCC(=O)O)C(=O)O)s3)cc2c(=O)[nH]1 [Raltitrexed, raltitrexed] | IC50 | 7.3 µM |

Now turn to the next compound.
[ask] Sample CCc1nc(N)nc(N)c1-c1ccc(Cl)cc1 [Pyrimethamine, pyrimethamine] — what was its IC50?
[reply] 16 µM

---

Target: BmDHFR (Brugia malayi, UniProt A0A4E9FIQ4)
Test: biochemical
Format: biochemical
Conditions: individual trial; read-out: IC50 against BmDHFR Trial 3
Experimental: Compounds (-)-epicatechin, (-)-epicatechin gallate, and vitexin were tested as inhibitors of WbDHFR and BmDHFR. The compounds (-)-epicatechin and (-)-epicatechin gallate were synthesized as described previously. […] Disappearance of DHF and NADPH was observed by measuring absorbance at 340 nm to measure the DHFR activity in a SpectraMax M3 microplate reader. […] All experiments were completed in triplicate. A linear equation was fitted to the data at each substrate concentration. […]
measure name: IC50 (µM)
Use µM as the unit, but write only the number.

[ask] Looking for the measured IC50 of `CCc1nc(N)nc(N)c1-c1ccc(Cl)cc1` , can you help?
[reply] 8.7

---

Target: BmDHFR (Brugia malayi, UniProt A0A4E9FIQ4)
Test: biochemical
Type: biochemical
Settings: obtained using the Cheng-Prusoff Equation; upper limit for tight-binding inhibitors; read-out: KI BmDHFR
Description: Compounds (-)-epicatechin, (-)-epicatechin gallate, and vitexin were tested as inhibitors of WbDHFR and BmDHFR. The compounds (-)-epicatechin and (-)-epicatechin gallate were synthesized as described previously. […] Disappearance of DHF and NADPH was observed by measuring absorbance at 340 nm to measure the DHFR activity in a SpectraMax M3 microplate reader. […] All experiments were completed in triplicate. A linear equation was fitted to the data at each substrate concentration. […]
measure name: Ki (µM)
// note: answer is a bare numeric in µM

| test smiles | Ki, µM |
| --- | --- |
| Cc1nc2ccc(CN(C)c3ccc(C(=O)N[C@@H](CCC(=O)O)C(=O)O)s3)cc2c(=O)[nH]1 | 1.6 |

[ask] Given the entry `CCc1nc(N)nc(N)c1-c1ccc(Cl)cc1` , report its measured Ki.
[reply] 3.6

---

Biological target: UniProt A0A4E9FIQ4
Test: biochemical
Format: biochemical
Details: individual trial; read-out: IC50 against BmDHFR Trial 2
measure name: IC50
Please answer using the number first and the unit second.

| compound | reported value |
| --- | --- |
| CCc1nc(N)nc(N)c1-c1ccc(Cl)cc1 [Pyrimethamine, pyrimethamine] | 21.8 µM |

With those in mind, consider the next compound.
[ask] Quick one: IC50 of Cc1nc2ccc(CN(C)c3ccc(C(=O)N[C@@H](CCC(=O)O)C(=O)O)s3)cc2c(=O)[nH]1 [Raltitrexed, raltitrexed] ?
[reply] 6.83 µM

---

Target: BmDHFR (Brugia malayi, UniProt A0A4E9FIQ4)
Experiment: biochemical
Format: biochemical
Conditions: pH 6.0, 100 μM NADPH, 50 μM DHF, 40 nM BmDHFR; average of triplicates ± S.D.; read-out: IC50 BmDHFR
measure name: IC50 (µM)
Give your result in µM as a bare value.

[ask] # IC50 lookup, item `Cc1nc2ccc(CN(C)c3ccc(C(=O)N[C@@H](CCC(=O)O)C(=O)O)s3)cc2c(=O)[nH]1`
[reply] 7.3

These measurements were taken from paper PMC5963757.
